experimental.target: LTBP-proTGFβ1 in the LN229 CAGA12 assay of Table 20 (endogenous or over-expressed murine LTBP1 not stated)
test.method.notes: cell-based or functional assay

binder	IC50 (CAGA12 luciferase)
SR-AB53-HuFab (Fab, V domains shown) VH: QVQLVESGGGVVQPGRSLRLSCAASGFTFRSYVMHWVRQAPGKGLEWVAVISHEGSGKYYADSVKGRFTISRDNSKNTLYLQMNSLRAEDTAVYYCARPRIAARRGGFGTWGQGTLVTVSS VL: NFMLTQPHSVSESPGKTVTISCTRSSGNIDYNYVQWYQQRPGSSPTTVIYEDNVRPSGVPDRFSGSIDSSSNSASLTISGLKTEDEADYYCQGYDWDTQGVVFGGGTKLTVL	1.18 nM
SR-AB57-HuFab (Fab, V domains shown) VH: QVQLVESGGGVVQPGRSLRLSCAASGFTFRSYVMHWVRQAPGKGLEWVAVISHEGSGKYYADSVKGRFTISRDNSKNTLYLQMNSLRAEDTAVYYCALPRIAARRGGFGSWGQGTLVTVSS VL: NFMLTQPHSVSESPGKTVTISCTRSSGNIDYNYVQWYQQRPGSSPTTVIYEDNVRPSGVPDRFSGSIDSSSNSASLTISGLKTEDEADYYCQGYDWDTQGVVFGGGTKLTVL	0.775 nM
SR-AB58-HuFab (Fab, V domains shown) VH: QVQLVESGGGVVQPGRSLRLSCAASGFTFRSYVMHWVRQAPGKGLEWVAVISHEGSGKYYADSVKGRFTISRDNSKNTLYLQMNSLRAEDTAVYYCALPRIAARRGGFGTWGQGTLVTVSS VL: NFMLTQPHSVSESPGKTVTISCTRSSGNIDYNYVQWYQQRPGSSPTTVIYEDNVRPSGVPDRFSGSIDSSSNSASLTISGLKTEDEADYYCQSYDSDNQRVVFGGGTKLTVL	4.86 nM
SR-AB49-HuFab (Fab, V domains shown) VH: QVQLVESGGGVVQPGRSLRLSCAASGFTFRSYVMHWVRQAPGKGLEWVAVISHEGSGKYYADSVKGRFTISRDNSKNTLYLQMNSLRAEDTAVYYCARPRIAARRGGFGSWGQGTLVTVSS VL: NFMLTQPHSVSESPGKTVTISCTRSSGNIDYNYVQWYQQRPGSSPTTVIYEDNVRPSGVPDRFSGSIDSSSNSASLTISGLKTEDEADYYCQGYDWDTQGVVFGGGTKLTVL	1.02 nM
SR-AB23 Fab (Fab, V domains shown) VH: QVQLVESGGGVVQPGRSLRLSCAASGFTFRSYVMHWVRQAPGKGLEWVAVISHEGSLKYYADSVKGRFTISRDNSKNTLYLQMNSLRAEDTAVYYCARPRIAARRGGFGYWGQGTLVTVSS VL: NFMLTQPHSVSESPGKTVTISCTRSSGNIDNNYVQWYQQRPGSSPTTVIYEDNQRPSGVPDRFSGSIDSSSNSASLTISGLKTEDEADYYCQSYDSDNQGVVFGGGTKLTVL	8.53 nM

The reported measurements were obtained from patent US20220064276A1.
